target or system: Human GPR40 (Homo sapiens (Human), UniProt O14842)
Sequence (O14842 whole entry): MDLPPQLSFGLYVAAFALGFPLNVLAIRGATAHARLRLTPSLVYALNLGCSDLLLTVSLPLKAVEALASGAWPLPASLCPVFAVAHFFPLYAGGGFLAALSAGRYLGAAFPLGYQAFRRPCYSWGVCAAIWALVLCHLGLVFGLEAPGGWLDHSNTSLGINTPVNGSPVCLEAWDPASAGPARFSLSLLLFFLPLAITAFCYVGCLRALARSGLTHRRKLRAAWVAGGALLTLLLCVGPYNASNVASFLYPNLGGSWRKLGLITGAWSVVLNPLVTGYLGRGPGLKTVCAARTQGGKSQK
assay text: Inositol Phosphate Turnover (IP1) Assay 1, HEK cells stably expressing human GPR40, 3H-inositol SPA
Type: cell-based
condition context: HEK cells stably expressing human GPR40, 96-well
Checkbox rule: EC50 lower than 100 nM = label 1; EC50 not lower than 100 nM = label 0.

O=C(O)C[C@H](c1cccc(OCC2CN(Cc3c(F)cccc3C(F)(F)F)C2)c1)C1CC1
label 0
C[C@H](C(=O)O)[C@H](c1cccc(OCC2CC(Oc3cccc4c3OC(C)(C)C4)C2)c1)C1CC1 (stereo partly drawn)
label 0
C[C@H](C(=O)O)[C@H](c1cccc(OCC2CC(Oc3c(F)cccc3F)C2)c1)C1CC1 (stereo partly drawn)
label 0
COc1ccc(C)cc1OC1CC(COc2cccc([C@H](C3CC3)[C@H](C)C(=O)O)c2)C1 (single isomer, unassigned) [Example 117]
label 1

Criterion: EC50 strictly below 100 nM. Is it met by C[C@H](C(=O)O)[C@H](c1cccc(O[C@@H]2CCCN(Cc3cc(C(F)(F)F)ccc3C(F)(F)F)C2)c1)C1CC1 ?
label 1

Please determine if C[C@H](C(=O)O)[C@H](c1cccc(O[C@H]2CCCN(Cc3cc(C(F)(F)F)ccc3C(F)(F)F)C2)c1)C1CC1 [Example 29] is below 100 nM in terms of EC50.
label 0

Would you kindly verify if EC50 of C[C@H](C(=O)O)[C@H](c1cccc(OCC2CC(Oc3ccccc3Cl)C2)c1)C1CC1 (single isomer, unassigned) [Example 133] is strictly less than 100 nM?
label 0

Please indicate whether the reported EC50 of CCC(c1cc(C(F)(F)F)ccc1C(F)(F)F)N1CC(COc2cccc([C@H](C3CC3)[C@H](C)C(=O)O)c2)C1 (stereo partly drawn) is strictly below 100 nM.
label 1

Hello, I'm reviewing records and need to know if EC50 of COc1cccc([C@H]2C[C@@H]2COc2cccc([C@H](C3CC3)[C@H](C)C(=O)O)c2)c1F is below 100 nM. Could you check?
label 0

----------
target or system: Human GPR40 (Homo sapiens (Human), UniProt O14842)
assay text: Inositol Phosphate Turnover (IP1) Assay 1, HEK cells stably expressing human GPR40, 3H-inositol SPA
Type: cell-based
condition context: HEK cells stably expressing human GPR40, 96-well
Recorded measurements of log10 of EC50, one per entry
Values are log10 of EC50 in nM.

Known log10 of EC50 results, listed for orientation:
COc1cccc([C@H]2CC[C@@H](COc3cccc([C@H](C4CC4)[C@H](C)C(=O)O)c3)C2)c1
2.07
O=C(O)C[C@H](c1cccc(OC2CCN(Cc3cc(C(F)(F)F)ccc3C(F)(F)F)CC2)c1)C1CC1
3.01
COc1ncc([C@H]2C[C@@H]2COc2cccc([C@H](C3CC3)[C@H](C)C(=O)O)c2)cc1F
2.90
CC(C)Oc1ccccc1OC1CC(COc2cccc([C@H](C3CC3)[C@H](C)C(=O)O)c2)C1 (single isomer, unassigned) [Example 127]
2.26
CC1(COc2cccc([C@@H](CC(=O)O)C3CC3)c2)CCN(Cc2cc(C(F)(F)F)ccc2C(F)(F)F)C1 (stereo partly shown)
2.98
CC(c1cc(C(F)(F)F)ccc1C(F)(F)F)N1CC(COc2cccc([C@@H](CC(=O)O)C3CC3)c2)C1 (stereo partly shown)
1.43

Note: attention shifts to another entry.
Reported Human GPR40 (Homo sapiens (Human), UniProt O14842) log10 of EC50 for item C[C@H](C(=O)O)[C@H](c1cccc(OCC2CC(Oc3ccccn3)C2)c1)C1CC1 (stereo partly shown) [Example 102] was 2.81
